Recorded values, source patent US20200369616A1.

experiment: Estimation of compound solubility in sesame oil; assay type: physicochemical; conditions: room temperature; remained in solution for at least 72 hrs
The entries below are paired with their reported Sesame Oil Solubility.
Numeric answer only, unit mg/mL assumed.

A selection of reference data follows.
CCCOC(=O)OCOc1c(-c2ccc(Oc3ccc(OC(F)(F)F)cc3)cc2)c(C)nc2cc(OC)c(Cl)cc12    83
COC(=O)OCOc1c(-c2ccc(Oc3ccc(OC(F)(F)F)cc3)cc2)c(C)nc2cc(OC)c(Cl)cc12    91
CCCCCCCCCOC(=O)OCOc1c(-c2ccc(Oc3ccc(OC(F)(F)F)cc3)cc2)c(C)nc2cc(OC)c(Cl)cc12    333

Next item in the queue.
Enquiry: What value of measured Sesame Oil Solubility is listed for CCCCOC(=O)OCOc1c(-c2ccc(Oc3ccc(OC(F)(F)F)cc3)cc2)c(C)nc2cc(OC)c(Cl)cc12 ?
Return: 71

* * *

experiment: Estimation of compound solubility in sesame oil; type: physicochemical; details: sesame oil, oil or lipid, thermodynamic from solid; room temperature; remained in solution for at least 72 hrs
solubility listing for selected compounds.
All answers are understood in mg/mL, so give the number only.

Would you please look over these solved cases?
CCCCCOC(=O)OCOc1c(-c2ccc(Oc3ccc(OC(F)(F)F)cc3)cc2)c(C)nc2cc(OC)c(Cl)cc12    83
CCOC(=O)OCOc1c(-c2ccc(Oc3ccc(OC(F)(F)F)cc3)cc2)c(C)nc2cc(OC)c(Cl)cc12    125
CCCCCCCCOC(=O)OCOc1c(-c2ccc(Oc3ccc(OC(F)(F)F)cc3)cc2)c(C)nc2cc(OC)c(Cl)cc12    100
CCCCCCOC(=O)OCOc1c(-c2ccc(Oc3ccc(OC(F)(F)F)cc3)cc2)c(C)nc2cc(OC)c(Cl)cc12    100

Next, consider the following compound.
Enquiry: Bench note: what solubility did CCCCCCCOC(=O)OCOc1c(-c2ccc(Oc3ccc(OC(F)(F)F)cc3)cc2)c(C)nc2cc(OC)c(Cl)cc12 show?
Return: 71

* * *

QUANTITY_MEASURED: melting point (°C)
Entry rule: numbers only, all in °C.

Enquiry: Fill blank: measured melting point of the compound CCCCCCOC(=O)OCOc1c(-c2ccc(Oc3ccc(OC(F)(F)F)cc3)cc2)c(C)nc2cc(OC)c(Cl)cc12 is ____.
Return: 79

Enquiry: Quick one: melting point of CCCCCCCCCCOC(=O)OCOc1c(-c2ccc(Oc3ccc(OC(F)(F)F)cc3)cc2)c(C)nc2cc(OC)c(Cl)cc12 ?
Return: 55

Enquiry: Which value of melting point has been reported for CCCCCCCCOC(=O)OCOc1c(-c2ccc(Oc3ccc(OC(F)(F)F)cc3)cc2)c(C)nc2cc(OC)c(Cl)cc12 in the records?
Return: 54

Enquiry: I have this compound here, CCCCCOC(=O)OCOc1c(-c2ccc(Oc3ccc(OC(F)(F)F)cc3)cc2)c(C)nc2cc(OC)c(Cl)cc12 , and I need its recorded melting point.
Return: 109
